# Tested on: TNF
# procedure.details: PBMC assay, TNF release after LPS stimulation
# Assay type: cell-based
# study.conditions: human PBMCs, 30 min preincubation, 100 ng/ml LPS for 6 hrs, supernatant, MSD technology
Items are presented alongside their recorded AC50.

{"compound": "CC(C)c1nn(CC(=O)Nc2ccc3nncn3c2)c(=O)cc1N1CCC2(CC1)CC2(F)F", "result": "> 20 µM"}

Value wanted: AC50 (TNF) of entry CC(C)c1nn(CC(=O)Nc2ccc3nncn3c2)c(=O)cc1N1CCC(Oc2ccccn2)C1 (centres unmarked) 16.1 µM

Value wanted: AC50 (TNF) of entry CC(C)c1nn(CC(=O)Nc2ccc3nncn3c2)c(=O)cc1N1CCC12CCOCC2 > 10 µM

Value wanted: AC50 (TNF) of entry CC(C)c1nn(CC(=O)Nc2ccc3nncn3c2)c(=O)cc1Nc1cnn(CC23CC(CO2)C3)c1 > 10 µM

Value wanted: AC50 (TNF) of entry CC(C)c1nn(CC(=O)Nc2ccc3nncn3c2)c(=O)cc1N1CC2(C1)CC(F)(F)C2 > 20 µM

----------
Items are presented alongside their recorded AC50.
# System: TNF
# procedure.details: PBMC assay, TNF release after LPS stimulation
# Format: cell-based
# study.conditions: human PBMCs, 30 min preincubation, 100 ng/ml LPS for 6 hrs, supernatant, MSD technology
# Procedure: Peripheral venous blood was collected from healthy individuals and human peripheral blood mononuclear cells (PBMCs) were isolated from blood by Ficoll-Histopaque (Sigma-Aldrich, A0561) density gradient centrifugation. After isolation, PBMCs were stored in liquid nitrogen for later use. Upon thawing, PBMC cell viability was determined in growth medium (RPMI media supplemented with 10% fetal bovine serum, 1% Pen-Strep and 1% L-glutamine). […]

Guide cases for AC50, answers given:
{"molecule": "CC(C)c1nn(CC(=O)Nc2ccc3nncn3c2)c(=O)cc1N1CCN(C)CC1 [Compound 48]", "AC50": "> 20 µM"}
{"molecule": "CC(C)c1nn(CC(=O)Nc2ccc3nncn3c2)c(=O)cc1N1CCCC(F)C1 (stereo not shown) [Compound 60]", "AC50": "19.1 µM"}
{"molecule": "CC(C)c1nn(CC(=O)Nc2ccc3nncn3c2)c(=O)cc1N(C)C1CC1 [Compound 67]", "AC50": "> 20 µM"}
{"molecule": "CC(C)c1nn(CC(=O)Nc2ccc3nncn3c2)c(=O)cc1N1CCC2(CCCO2)C1 (stereo not shown) [Compound 52]", "AC50": "> 20 µM"}
{"molecule": "CC(C)CN(C)c1cc(=O)n(CC(=O)Nc2ccc3nncn3c2)nc1C(C)C [Compound 47]", "AC50": "> 20 µM"}

Value wanted: AC50 (TNF) of entry CC(C)c1nn(CC(=O)Nc2ccc3nncn3c2)c(=O)cc1N1CC[C@H](C)C1 [Compound 51] > 20 µM

Value wanted: AC50 (TNF) of entry CC(C)c1nn(CC(=O)Nc2ccc3nncn3c2)c(=O)cc1Nc1ccc2oncc2c1 [Compound 41] > 20 µM

Value wanted: AC50 (TNF) of entry CC(C)c1nn(CC(=O)Nc2ccc3nncn3c2)c(=O)cc1Nc1cnc(C2CC2)nc1 [Compound 39] > 6.67 µM

Value wanted: AC50 (TNF) of entry CC1CN(c2cc(=O)n(CC(=O)Nc3ccc4nncn4c3)nc2C(C)C)C1 [Compound 23] > 10 µM

Value wanted: AC50 (TNF) of entry CC(C)c1nn(CC(=O)Nc2ccc3nncn3c2)c(=O)cc1N1CCC(C)(O)CC1 [Compound 36] > 20 µM

Value wanted: AC50 (TNF) of entry CC(C)c1nn(CC(=O)Nc2ccc3nncn3c2)c(=O)cc1N1CCCCC1C (stereo not shown) [Compound 54] > 20 µM

Value wanted: AC50 (TNF) of entry CC(C)c1nn(CC(=O)Nc2ccc3nncn3c2)c(=O)cc1NC1CC(C)(C)C1 [Compound 31] > 20 µM

Value wanted: AC50 (TNF) of entry CC(C)c1nn(CC(=O)Nc2ccc3nncn3c2)c(=O)cc1NC1CC1 [Compound 66] > 20 µM

Value wanted: AC50 (TNF) of entry CO[C@@H]1CCN(c2cc(=O)n(CC(=O)Nc3ccc4nncn4c3)nc2C(C)C)C1 [Compound 17] > 10 µM

Value wanted: AC50 (TNF) of entry CC(C)c1nn(CC(=O)Nc2ccc3nncn3c2)c(=O)cc1N1CCC(F)(F)CC1 [Compound 12] > 10 µM

Value wanted: AC50 (TNF) of entry CC(C)c1nn(CC(=O)Nc2ccc3nncn3c2)c(=O)cc1N1CCC(F)(F)C1 [Compound 13] > 10 µM

Value wanted: AC50 (TNF) of entry CC(C)c1nn(CC(=O)Nc2ccc3nncn3c2)c(=O)cc1N1CCCC1 [Compound 5] > 10 µM

Value wanted: AC50 (TNF) of entry CC(C)c1nn(CC(=O)Nc2ccc3nncn3c2)c(=O)cc1N1CCC(c2ccncc2)C1 (stereo not shown) [Compound 65] > 20 µM

Value wanted: AC50 (TNF) of entry CC(C)c1nn(CC(=O)Nc2ccc3nncn3c2)c(=O)cc1N1CCC[C@@H]1C [Compound 18] > 10 µM
